test system: COLO 205 colon; experiment: NCI tumour cell line growth inhibition, 48 h; in the data active means GI50 below about 0.43 µM; inactive means the rest
Possible outcomes: 1 (active), 0 (inactive)

COMPOUND	MEASURED ON	LABEL VALUE
CC1/C=C/C=C/C=C/C=C/C=C/C=C/C=C/C(O[C@@H]2O[C@H](C)[C@H](O)[C@@H](O)[C@@H]2N)CC(O)C(C(=O)O)C(O)CC(=O)CC(O)CC(O)CC(O)CC(=O)CCCC(=O)CC(=O)OC1C(C)CC(C)C(O)CC(=O)c1ccc(N)cc1 (some centres undefined)	COLO 205 colon	0
Cc1ccc(C2NC(=S)NC3=C2CCOc2c3ccc3ccccc23)cc1 (centres undefined)	COLO 205 colon	0
COc1cccc(C2C(C#N)=C(N)Oc3cc(N)ccc32)c1 (centres undefined)	COLO 205 colon	1
CCOC(=O)c1sc2nc3sc(N=Nc4ccc(Cl)cc4)c(O)n3c(=S)c2c1C	COLO 205 colon	0
COc1ccccc1-n1c(-c2cc(O)ccc2C)cn2c3c(=O)[nH]c(=O)n(C)c3nc12	COLO 205 colon	0
Cc1cccc(Oc2nccc(-c3c(-c4ccc(F)cc4)ncn3C3CCNCC3)n2)c1C	COLO 205 colon	0
CC(C)CCOc1ccc(-c2n[nH]c(C(F)(F)F)c2-c2cncc(C#N)c2)c(O)c1	COLO 205 colon	0
COc1ccc(-c2ccc(/C=N/n3c(COc4ccccc4Cl)nn(CN4CCN(C)CC4)c3=S)o2)c([N+](=O)[O-])c1	COLO 205 colon	0
N#Cc1c(-c2ccc(Cl)cc2)n(O)c2ccccc12	COLO 205 colon	0
